Values were extracted from patent US20240109917A1.

SYSTEM: Tb-labeled inactive PDGFRβ (Homo sapiens (Human))
Sequence (P09619 33-1106): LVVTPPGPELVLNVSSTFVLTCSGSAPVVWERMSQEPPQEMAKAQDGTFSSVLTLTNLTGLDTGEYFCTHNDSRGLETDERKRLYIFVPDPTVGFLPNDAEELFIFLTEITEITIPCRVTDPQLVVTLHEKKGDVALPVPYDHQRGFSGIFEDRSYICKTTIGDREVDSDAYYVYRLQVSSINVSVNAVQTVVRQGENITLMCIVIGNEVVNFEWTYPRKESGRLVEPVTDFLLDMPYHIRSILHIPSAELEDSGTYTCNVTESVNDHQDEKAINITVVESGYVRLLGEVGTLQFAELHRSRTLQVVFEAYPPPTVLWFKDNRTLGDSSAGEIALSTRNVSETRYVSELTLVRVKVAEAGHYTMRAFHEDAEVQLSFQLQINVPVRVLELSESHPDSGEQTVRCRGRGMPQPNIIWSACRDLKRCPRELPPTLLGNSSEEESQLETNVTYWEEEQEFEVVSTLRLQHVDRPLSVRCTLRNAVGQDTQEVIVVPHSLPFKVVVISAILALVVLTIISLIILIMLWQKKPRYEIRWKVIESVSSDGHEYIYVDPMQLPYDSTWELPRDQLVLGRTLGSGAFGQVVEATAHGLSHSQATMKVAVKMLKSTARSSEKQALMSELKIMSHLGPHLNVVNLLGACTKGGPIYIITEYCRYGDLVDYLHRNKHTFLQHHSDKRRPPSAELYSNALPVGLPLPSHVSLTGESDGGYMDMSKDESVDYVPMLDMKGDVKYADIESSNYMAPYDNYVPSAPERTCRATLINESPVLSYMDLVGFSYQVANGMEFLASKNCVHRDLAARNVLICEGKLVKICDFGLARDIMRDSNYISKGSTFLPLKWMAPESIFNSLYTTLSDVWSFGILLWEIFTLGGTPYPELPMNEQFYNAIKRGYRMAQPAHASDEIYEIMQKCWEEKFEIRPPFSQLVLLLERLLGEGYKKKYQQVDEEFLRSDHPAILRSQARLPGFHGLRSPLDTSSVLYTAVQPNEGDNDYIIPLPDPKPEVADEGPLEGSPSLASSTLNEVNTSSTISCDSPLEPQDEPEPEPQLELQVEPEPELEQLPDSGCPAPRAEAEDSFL
PROCEDURE_DETAILS: PDGFRβ LanthaScreen Assay
Format: binding
TEST_PARAMETERS: read-out: PDGFR Lantha IC50
IC50 overview
Report as a plain number; the unit nM is understood.

Cc1ncc(NC(=O)CN2C[C@H](C)O[C@@H](C)C2)cc1NC(=O)c1cnn2cc(-c3cnn4c3OCCC4)sc12 (relative stereo) [Example 375]; 4.5
COCCn1cc(-c2cn3ncc(C(=O)Nc4cc(C(=O)NCCN5CC6CCC5CC6)cnc4C)c3s2)cn1 [Example 142]; 4.2

// next entry
// recorded IC50 for COc1ncc(-c2cn3ncc(C(=O)Nc4cc(NC(=O)CN5CC(C)(C)C5)cnc4C)c3s2)c(OC)n1 [Example 392] : 4.6

* * *

pIC50 overview
SYSTEM: His6-TEV-PDGFRβ (557-1016) (Homo sapiens (Human))
Sequence (P09619 557-1016): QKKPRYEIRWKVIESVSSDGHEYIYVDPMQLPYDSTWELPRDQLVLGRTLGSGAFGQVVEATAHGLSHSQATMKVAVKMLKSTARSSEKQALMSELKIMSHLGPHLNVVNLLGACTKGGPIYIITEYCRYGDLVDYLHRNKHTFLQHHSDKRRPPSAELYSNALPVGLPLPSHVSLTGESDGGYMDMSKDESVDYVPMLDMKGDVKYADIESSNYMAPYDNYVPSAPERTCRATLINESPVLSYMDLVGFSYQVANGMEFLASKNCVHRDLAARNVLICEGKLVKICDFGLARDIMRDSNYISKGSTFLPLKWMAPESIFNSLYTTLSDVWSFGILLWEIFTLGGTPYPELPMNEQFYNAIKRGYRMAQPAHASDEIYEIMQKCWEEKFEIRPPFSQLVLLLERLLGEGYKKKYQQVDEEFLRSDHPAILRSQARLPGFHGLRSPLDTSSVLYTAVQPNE
Reminder that pIC50 means the negative base-10 logarithm of the concentration expressed in mol/L.

Cc1ncc(NC(=O)CN2C[C@H](C)O[C@@H](C)C2)cc1NC(=O)c1cnn2cc(-c3c(C)n[nH]c3C)sc12 (relative stereo) [Example 373]; 8.89
Cc1ncc(NC(=O)CNCC2CC2)cc1NC(=O)c1cnn2cc(-c3cnn4c3OCCC4)sc12 [Example 453]; 9.22

// next entry
Test item CNC(=O)c1cc(-c2cn3ncc(C(=O)Nc4cc(NC(=O)CN5CC(C)(C)C5)cnc4C)c3s2)ccn1 [Example 274] ; His6-TEV-PDGFRβ (557-1016) (Homo sapiens (Human)); reported pIC50 was 9.00

* * *

SYSTEM: PDGFRβ (Rattus norvegicus (Rat), UniProt Q05030)
Sequence (Q05030 32-1097): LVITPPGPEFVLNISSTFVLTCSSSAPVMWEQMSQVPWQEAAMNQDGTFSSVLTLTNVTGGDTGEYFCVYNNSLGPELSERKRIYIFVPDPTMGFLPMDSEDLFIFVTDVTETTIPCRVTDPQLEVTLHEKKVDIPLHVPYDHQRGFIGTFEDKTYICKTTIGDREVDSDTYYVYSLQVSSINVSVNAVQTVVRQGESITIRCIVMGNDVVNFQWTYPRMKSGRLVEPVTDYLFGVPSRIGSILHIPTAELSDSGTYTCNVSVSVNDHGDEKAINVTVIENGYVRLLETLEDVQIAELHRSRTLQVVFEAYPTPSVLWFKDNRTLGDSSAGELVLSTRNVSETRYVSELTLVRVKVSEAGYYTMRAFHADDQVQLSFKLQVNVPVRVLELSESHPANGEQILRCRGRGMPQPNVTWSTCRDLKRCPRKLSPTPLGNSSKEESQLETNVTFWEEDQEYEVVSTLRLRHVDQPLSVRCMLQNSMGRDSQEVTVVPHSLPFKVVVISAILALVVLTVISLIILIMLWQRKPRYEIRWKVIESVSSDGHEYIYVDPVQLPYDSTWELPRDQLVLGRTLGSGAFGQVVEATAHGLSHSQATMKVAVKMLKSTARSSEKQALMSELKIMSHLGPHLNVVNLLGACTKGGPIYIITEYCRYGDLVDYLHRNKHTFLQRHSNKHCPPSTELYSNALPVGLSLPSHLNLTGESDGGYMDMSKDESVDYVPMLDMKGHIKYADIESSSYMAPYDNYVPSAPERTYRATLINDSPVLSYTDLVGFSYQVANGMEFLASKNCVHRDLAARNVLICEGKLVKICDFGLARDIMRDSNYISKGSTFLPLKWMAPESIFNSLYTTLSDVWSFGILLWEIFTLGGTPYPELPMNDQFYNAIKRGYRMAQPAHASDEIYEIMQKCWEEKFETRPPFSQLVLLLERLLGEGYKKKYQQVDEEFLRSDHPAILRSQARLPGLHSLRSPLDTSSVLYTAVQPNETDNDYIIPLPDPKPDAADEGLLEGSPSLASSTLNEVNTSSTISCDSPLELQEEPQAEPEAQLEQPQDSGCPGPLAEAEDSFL
PROCEDURE_DETAILS: PDGFRβ Cellular Assay (PDGFRb P-Y751 HTRF in A10 cells stimulated with PDGF-BB)
Format: cell-based
TEST_PARAMETERS: read-out: PDGFR Cellular IC50
pIC50 overview
Reminder that pIC50 means the negative base-10 logarithm of the concentration expressed in mol/L.

Example cases with answers are listed next.
COCCn1cc(-c2cn3ncc(C(=O)Nc4cc(NC(=O)CCN5CCC(C)(C)C5)cnc4C)c3s2)cn1 [Example 89]; 7.58
Cc1ncc(C(=O)NCCN2CCCC23CCC3)cc1NC(=O)c1cnn2cc(-c3cnn(C)c3C)sc12 [Example 209]; 8.55
Cc1ncc(C(=O)NCCN2CC(C)(C)C2)cc1NC(=O)c1cnn2cc(-c3cccnc3)sc12 [Example 158]; 6.81
Cc1ncc(NC(=O)CN2C[C@@H](C)O[C@H](C)C2)cc1NC(=O)c1cnn2cc(-c3cnn(C)c3C)sc12 (relative stereo) [Example 433]; 8.29
Cc1ncc(NC(=O)C2CN(C(C)C)C2)cc1NC(=O)c1cnn2cc(-c3cnn(C)c3C)sc12 [Example 357]; 7.24
Cc1ncc(NC(=O)CN2CC(C)(C)C2)cc1NC(=O)c1cnn2cc(-c3cnn(CS(C)(=O)=O)c3)sc12 [Example 265]; 6.94
Cc1ncc(NC(=O)CN2CCCC23CCC3)cc1NC(=O)c1cnn2cc(-c3cnc4n3CCOC4)sc12 [Example 418]; 8.19

// next entry
// recorded pIC50 for CCn1nccc1-c1cn2ncc(C(=O)Nc3cc(NC(=O)CN4CC(C)(C)C4)cnc3C)c2s1 [Example 388] : 8.29
